Biological target: Paired box protein Pax-6 (Homo sapiens)
Assay: ATG_Pax6_CIS: Attagene CIS-FACTORIAL HepG2 Assay for human Paired Box 6 (PAX6) (AID 2282956)
Settings: HepG2 CIS-FACTORIAL PAX6 reporter transcription, RNA readout; actives raise or lower the signal
Experimental: ATG_CIS is a cell-based, multiplexed-readout assay that uses HepG2, a human liver cell line, with measurements taken at 24 hours after chemical dosing in a 24-well plate.ATG_Pax6_CIS is one of 52 assay component(s) measured or calculated from the ATG_CIS assay. […] This assay endpoint, ATG_Pax6_CIS, was analyzed with bidirectional fitting relative to DMSO as the negative control and baseline of activity. […]
Calls of active or inactive are those of the source. How the source made its calls: active means hit-call score of the fitted dose curve at least 0.9, where 1 is the maximum; inactive means score below 0.9.
Please reply with one of these outcomes: active, inactive

                      compound     label
0             CC(C)(C)c1ccccc1  inactive
1        CC1(C)C(=O)NC(=O)N1CO  inactive
2  CC1=C(C)S(=O)(=O)CCS1(=O)=O  inactive

Query :: What is the recorded call for this compound in the test? O=C1CCCCC1
Result :: inactive

Query :: What is the recorded call for this compound in the test? CCCCOC(=O)CCCCC(=O)OCCCC
Result :: inactive

Query :: What is the recorded call for this compound in the test? CCCCCCCCCC[N+](C)(C)[O-]
Result :: inactive

Query :: What is the recorded call for this compound in the test? CN(C)CCCN1c2ccccc2Sc2ccc(Cl)cc21
Result :: active

Query :: What is the recorded call for this compound in the test? CC(=O)S[C@H](C(=O)N[C@H]1Cc2ccccc2[C@H]2CCC[C@@H](C(=O)O)N2C1=O)C(C)C
Result :: inactive

Query :: What is the recorded call for this compound in the test? CO[C@@H]1COCC[C@@H]1N[C@@H]1CC[C@@](C(=O)N2CCc3ncc(C(F)(F)F)cc3C2)(C(C)C)C1
Result :: inactive

Query :: What is the recorded call for this compound in the test? O=C(Oc1ccccc1)c1cccc(C(=O)Oc2ccccc2)c1
Result :: inactive

Query :: What is the recorded call for this compound in the test? CCCCCCCC(=O)OC
Result :: inactive

Query :: What is the recorded call for this compound in the test? NC=O
Result :: inactive

Query :: What is the recorded call for this compound in the test? CC(C)c1cccc(C(C)C)c1NC(=O)NS(=O)(=O)c1cc(C(C)(C)O)co1
Result :: inactive

###

Assay: CEETOX_H295R_OHPROG: CeeTox H295R High-throughput Steroidogenesis Assay for OH-Progesterone (OHPROG) (AID 2283435)
Conditions: actives raise or lower the signal
Active and inactive are the calls of the source. The calls were made as follows: active = hit-call score of the fitted dose curve at least 0.9, where 1 is the maximum; inactive = score below 0.9.
Please reply with one of these outcomes: active, inactive

In [3]: df
Out[3]:
                                 molecule     label
0  O=C(Oc1ccccc1)c1cccc(C(=O)Oc2ccccc2)c1  inactive

Query :: What is the recorded call for this molecule in the test? COc1ccc(C(=O)Nc2nc3ccccc3c(NCc3ccccc3)c2C#N)cc1
Result :: active

Query :: What is the recorded call for this molecule in the test? Oc1ccc(O)cc1
Result :: inactive

Query :: What is the recorded call for this molecule in the test? CCC(C)N(C)C(=O)c1cc2ccccc2c(-c2ccccc2Cl)n1 (stereo unspecified)
Result :: active

Query :: What is the recorded call for this molecule in the test? CN(C)C(=O)NC1(c2ccccc2)CCN(CCC[C@]2(c3ccc(Cl)c(Cl)c3)CCCN(C(=O)c3ccccc3)C2)CC1
Result :: inactive

Query :: What is the recorded call for this molecule in the test? S=c1[nH]c2ccccc2s1
Result :: active

###

Target: human CYP2A6, CYP2A6 (gene 1548)
Assay: NVS_ADME_hCYP2A6: NovaScreen (NVS) CYP450-related Enzyme Activity (ADME) Assay for human CYP2A6 (AID 2283099)
Records with an inconclusive call do not appear. Active and inactive are the calls of the source. The calls were made as follows: active = hit-call score of the fitted dose curve at least 0.9, where 1 is the maximum; inconclusive = response in the unintended direction; inactive = score below 0.9.
Please reply with one of these outcomes: True (active), False (inactive)

In [3]: df
Out[3]:
                structure_string  label
0             S=c1[nH]c2ccccc2s1   True
1  CCc1nc(N)nc(N)c1-c1ccc(Cl)cc1  False
2          CC1(C)C(=O)NC(=O)N1CO  False

Query :: What is the recorded call for this compound in the test? NC1CCCCC1
Result :: False

Query :: What is the recorded call for this compound in the test? O=C1OC(c2ccc(O)cc2)(c2ccc(O)cc2)c2ccccc21
Result :: False

###

Read-out: Urokinase-type plasminogen activator receptor (uPAR), PLAUR (gene 5329)
Test: BSK_BE3C_uPAR: BioMAP Diversity Plus: BE3C Assay for Urokinase-type plasminogen activator receptor (uPAR) Biomarker Activity (AID 2283039)
Conditions: primary human bronchial epithelial cells; actives raise or lower the signal
The source made the active and inactive calls. How the source made its calls: active means hit-call score of the fitted dose curve at least 0.9, where 1 is the maximum; inactive means score below 0.9.
Please reply with one of these outcomes: active, inactive

Some solved cases for reference:
                                   compound     label
0  Cc1ccc(-c2cc(C(F)(F)F)nn2-c2ccc(S(N)(=O)=O)cc2)cc1    active
1                CC(=O)OCC(COC(C)=O)OC(C)=O  inactive
2                          COC(=O)CCC(=O)OC  inactive
3  CS(=O)(=O)c1ccc([C@@H](C[C@H]2CCC(=O)C2)C(=O)Nc2cnccn2)cc1Cl  inactive
4                                 CCCC(=O)O  inactive

Field: next compound
Query :: What is the recorded call for this compound in the test? CCCCCCC(C=O)=Cc1ccccc1
Result :: inactive

###

Assay: ATG_CMV_CIS: Attagene CIS-FACTORIAL HepG2 Assay for human CMV (Internal Marker) (AID 2282928);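 further: endpoint acts as a background internal control marker rather than a target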
Settings: HepG2 CMV promoter reporter, transcription factor profiling; actives raise or lower the signal
Calls of active or inactive are those of the source. How the source made its calls: active means hit-call score of the fitted dose curve at least 0.9, where 1 is the maximum; inactive means score below 0.9.
Please reply with one of these outcomes: active, inactive

Some solved cases for reference:
In [3]: df
Out[3]:
                                   molecule     label
0  CCCC[C@H]1CN(CC2CCOCC2)C(=O)OC12CCN(C1(C)CCN(C(=O)c3c(C)ncnc3C)CC1)CC2  inactive
1                                      O=NO  inactive
2  Cc1ccc(-c2cc(C(F)(F)F)nn2-c2ccc(S(N)(=O)=O)cc2)cc1  inactive

Query :: What is the recorded call for this molecule in the test? NC(=Nc1ccccc1)Nc1ccccc1
Result :: inactive

Query :: What is the recorded call for this molecule in the test? CC(C)c1cccc(C(C)C)c1NC(=O)NS(=O)(=O)c1cc(C(C)(C)O)co1
Result :: inactive

Query :: What is the recorded call for this molecule in the test? Cc1occc(=O)c1O
Result :: inactive

Query :: What is the recorded call for this molecule in the test? C/C=C/C=C/C(=O)O
Result :: inactive

Query :: What is the recorded call for this molecule in the test? CCCCCCCCCCCCCCCCO
Result :: inactive

Query :: What is the recorded call for this molecule in the test? CCc1nc(N)nc(N)c1-c1ccc(Cl)cc1
Result :: active

Query :: What is the recorded call for this molecule in the test? O=C(O)c1[nH]n(-c2ccc(S(=O)(=O)O)cc2)c(=O)c1N=Nc1ccc(S(=O)(=O)O)cc1
Result :: inactive

Query :: What is the recorded call for this molecule in the test? CCCC(=O)O
Result :: active

###

Read-out: 3-Hydroxy-3-Methylglutaryl-CoA Synthase 2 (HMGCS2), HMGCS2 (gene 3158)
Test: LTEA_HepaRG_HMGCS2: Life Technologies and Expression Analysis (LTEA) Assay for 3-Hydroxy-3-Methylglutaryl-CoA Synthase 2 (HMGCS2) using HepaRG (AID 2283504)
Details: mRNA level, 48 h; actives raise or lower the signal
Activity calls are given as the source filed them. Rule for the calls: active = hit-call score of the fitted dose curve at least 0.9, where 1 is the maximum; inactive = score below 0.9.
measurement-name: AC50

Worked examples follow.
                                   molecule               val
0                          COC(=O)CCC(=O)OC          inactive
1  CCc1cc(C2=C(C(=O)O)N(c3ccccc3C(F)(F)F)S(=O)(=O)c3ccccc32)cc2c1OCO2  81.4 µM (active)
2                  CCCCOC(=O)CCCCC(=O)OCCCC          inactive
3  O=C(NS(=O)(=O)/C=C/c1cccs1)c1ccc(F)cc1Br    71 µM (active)
4                                 CCCC(=O)O          inactive

Query :: Consider the molecule CN(C)C(=O)NC1(c2ccccc2)CCN(CC[C@@]2(c3ccc(F)c(F)c3)CN(C(=O)c3ccccc3)CCO2)CC1 and give its measured AC50.
Result :: 47 µM (active)

Query :: Consider the molecule O=C(Oc1ccccc1)c1cccc(C(=O)Oc2ccccc2)c1 and give its measured AC50.
Result :: inactive
